Some sequences, each annotated with its measured recombinant UMI read abundance (log10).
# TEST: recombinant UMI read abundance after kanamycin selection (control-corrected) (log10(CPM+1)); higher = more efficient recombination; extreme values may be limits of the assay; sequences stand for … in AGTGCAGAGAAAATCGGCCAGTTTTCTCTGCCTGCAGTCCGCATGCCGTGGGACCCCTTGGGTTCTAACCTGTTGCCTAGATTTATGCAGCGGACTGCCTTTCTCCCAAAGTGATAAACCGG…AGGTTGGTTTCACT; site = the 11-nt donor;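 note: IS621 bridge recombinase in Escherichia coli cells against a fixed T5 target plasmid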
Give a plain numeric answer without units written out.

Quick check: recombinant UMI read abundance (log10) of AATTATGCATGGACCGGTTTTCCCGGTAATCCGTATTTGTA (site AATTATGCTTG) ?
0.00449

Quick check: recombinant UMI read abundance (log10) of GGCAATCCATGGACCGGTTTTCCCGGTAATCCGTATTTGCA (site GGCAATCCTTT) ?
0.0136

Quick check: recombinant UMI read abundance (log10) of GCTACTTCATGGACCGGTTTTCCCGGTAATCCGTATTTGCC (site GCTACTGCTGG) ?
0

Quick check: recombinant UMI read abundance (log10) of TATGAATCATGGACCGGTTTTCCCGGTAATCCGTATTTGCC (site TATGAATCTGG) ?
1.12
